# tgt: methionyl-tRNA synthetase (Trypanosoma brucei brucei)
# procedure summary: T. brucei MetRS inhibitors, late-stage follow-up, biochemical, luminescence, dose response, round 3 (AID 1053132)
# study conditions: recombinant T. brucei MetRS, luminescence (ATP consumption)
Calls of active or inactive are those of the source. No rule for the calls is given here.
reported property: IC50

INSERT INTO measurements (structure_notation, tgt, data_value) VALUES
  ('CCN(CC)C(=O)C(=O)c1cn(CC(=O)Nc2cc(Oc3ccccc3F)cc(C(F)(F)F)c2)c2ccccc12', 'methionyl-tRNA synthetase (Trypanosoma brucei brucei)', '133 nM'),
  ('CCN(CC)C(=O)Cc1cn(CC(=O)Nc2cccc(C(F)(F)F)c2)c2ccccc12', 'methionyl-tRNA synthetase (Trypanosoma brucei brucei)', '> 119000 nM (inactive)'),
  ('CCN(CC)C(=O)C(=O)c1cn(CC(=O)Nc2cc(Oc3ccc(OC)cc3)cc(C(F)(F)F)c2)c2ccccc12', 'methionyl-tRNA synthetase (Trypanosoma brucei brucei)', '168 nM');

Source listed as PubChem BioAssay AID1053132.
